Source: ChEMBL document CHEMBL1135123

# target_desc: UniProtKB P27815
# procedure_text: Inhibitory concentration of compound against LPS- induced TNF-alpha production in whole human blood assay
# Assay type: functional, tissue-based
# Sequence (P27815 whole entry, the tested form may be a part, canonical isoform): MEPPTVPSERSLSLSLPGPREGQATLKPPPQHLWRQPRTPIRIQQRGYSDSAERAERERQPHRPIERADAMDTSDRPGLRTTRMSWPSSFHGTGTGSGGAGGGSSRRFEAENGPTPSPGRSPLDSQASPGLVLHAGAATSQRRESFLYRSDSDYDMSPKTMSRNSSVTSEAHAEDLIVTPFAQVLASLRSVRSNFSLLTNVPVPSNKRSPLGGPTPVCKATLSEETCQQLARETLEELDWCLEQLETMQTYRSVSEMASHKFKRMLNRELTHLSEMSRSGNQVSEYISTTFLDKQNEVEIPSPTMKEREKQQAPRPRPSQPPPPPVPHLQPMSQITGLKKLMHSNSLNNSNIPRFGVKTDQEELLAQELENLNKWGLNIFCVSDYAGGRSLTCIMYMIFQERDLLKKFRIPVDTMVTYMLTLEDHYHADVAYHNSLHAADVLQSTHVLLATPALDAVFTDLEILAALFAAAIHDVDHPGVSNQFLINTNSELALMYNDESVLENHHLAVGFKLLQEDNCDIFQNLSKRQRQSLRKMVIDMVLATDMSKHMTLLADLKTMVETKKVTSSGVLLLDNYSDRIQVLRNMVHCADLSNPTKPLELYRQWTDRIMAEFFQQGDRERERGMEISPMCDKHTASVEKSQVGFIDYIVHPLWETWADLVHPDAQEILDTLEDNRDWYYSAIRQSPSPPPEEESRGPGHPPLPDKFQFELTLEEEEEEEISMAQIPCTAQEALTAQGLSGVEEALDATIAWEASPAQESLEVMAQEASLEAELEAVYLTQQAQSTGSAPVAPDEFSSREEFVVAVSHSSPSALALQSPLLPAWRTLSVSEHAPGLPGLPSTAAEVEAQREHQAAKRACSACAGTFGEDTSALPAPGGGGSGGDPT
pIC50: −log10 of the molar value.
endpoint: pIC50

1. O=C(O)c1ccc(C(Cc2cc[n+]([O-])cc2)c2ccc(OC(F)F)c(OC(F)F)c2)cc1 (stereo not given) ... 4.11
2. O=C(O)Cc1ccc(C(Cc2cc[n+]([O-])cc2)c2ccc(OC(F)F)c(OC(F)F)c2)cc1 (stereo not given) ... 4.24
3. COc1ccc(C(Cc2ccncc2)c2ccc(Cl)cc2)c(F)c1OC1CCCC1 (stereo not given) ... 4.01

1 = CCNC(=O)OCc1ccc(C(Cc2cc[n+]([O-])cc2)c2ccc(OC(F)F)c(OC(F)F)c2)cc1 (stereo not given)
2 = CC(C)(C(=O)O)c1cccc(-c2ccc(C(Cc3cc[n+]([O-])cc3)c3ccc(OC(F)F)c(OC(F)F)c3)cc2)c1 (stereo not given)
Input: Of the two listed items, 1 and 2 , which carries the larger pIC50 figure? // caller expects the label of the chosen entry
Output: 1
(1: 6.39, 2: 5.19)

---

# target_desc: 3',5'-cyclic-AMP phosphodiesterase 4A (Homo sapiens, UniProt P27815)
# procedure_text: Inhibitory concentration against human PDE4A isoform using a construct representing the common region of spliced variants expressed as GST-fusion protein in Sf9 cells
# Sequence (P27815 whole entry, looked up, stated change not applied, the tested form may be a part, canonical isoform): as the sequence (P27815 whole entry, the tested form may be a part, canonical isoform) above
endpoint: IC50 (nM)

A = Cc1ccccc1C(=O)NS(=O)(=O)c1ccc(C(Cc2cc[n+]([O-])cc2)c2ccc(OC(F)F)c(OC(F)F)c2)cc1 (centres undefined)
B = CCNC(=O)OCc1ccc(C(Cc2cc[n+]([O-])cc2)c2ccc(OC(F)F)c(OC(F)F)c2)cc1 (centres undefined)
C = [O-][n+]1ccc(CC(c2ccc(CO)cc2)c2ccc(OC(F)F)c(OC(F)F)c2)cc1 (centres undefined)
D = O=C(O)c1ccc(C(Cc2cc[n+]([O-])cc2)c2ccc(OC(F)F)c(OC(F)F)c2)cc1 (centres undefined)
E = FC(F)Oc1ccc(C(Cc2ccncc2)c2ccc(Cl)cc2)cc1OC1CCCC1 (centres undefined)
Input: Put these in order: smallest IC50 first, largest last. List labels; respect the requested ordering.
Output: A, B, E, D, C

a = COc1ccc([C@H](Cc2ccncc2)c2ccccc2)cc1OC1CCCC1
b = O=C(O)Cc1ccc(C(Cc2cc[n+]([O-])cc2)c2ccc(OC(F)F)c(OC(F)F)c2)cc1 (centres undefined)
c = COc1ccc(C(Cc2ccncc2)c2ccc(Cl)cc2)c(F)c1OC1CCCC1 (centres undefined)
Input: In this exercise, place the 3 compounds in ascending sequence of their recorded IC50. List labels; respect the requested ordering.
Output: a, b, c
(a: 4.3 nM, b: 53 nM, c: 110 nM)

---

# target_desc: UniProt P27815
# procedure_text: Inhibitory concentration of compound against LPS- induced TNF-alpha production in whole human blood assay
# Assay type: functional, tissue-based
pIC50: −log10 of the molar value.
endpoint: pIC50

// worked examples, pIC50 included
1. Cc1ccccc1C(=O)NS(=O)(=O)c1ccc(C(Cc2cc[n+]([O-])cc2)c2ccc(OC(F)F)c(OC(F)F)c2)cc1 (stereo not given) ... 4.12
2. Cc1ccc(C(=O)c2ccc(C(Cc3cc[n+]([O-])cc3)c3ccc(OC(F)F)c(OC(F)F)c3)cc2)nc1 (stereo not given) ... 6.05
3. [O-][n+]1ccc(CC(c2ccc(CO)cc2)c2ccc(OC(F)F)c(OC(F)F)c2)cc1 (stereo not given) ... 6.33

P = CC(C)(O)c1ccc(C(Cc2cc[n+]([O-])cc2)c2ccc(OC(F)F)c(OC(F)F)c2)cc1 (stereo not given)
Q = FC(F)Oc1ccc(C(Cc2ccncc2)c2ccc(Cl)cc2)cc1OC(F)F (stereo not given)
Input: Of the two listed items, P and Q , which carries the larger pIC50 figure? // caller expects the label of the chosen entry
Output: P
(P: 6.44, Q: 5.35)
